Target: biotinylated labeled human GPC3 protein (produced in-house) (human, UniProt P51654 25-559, limits assumed, biotinylated (Dojindo, Cat. No. LK03); sites not stated)
Assay: ELISA, biotinylated human GPC3 protein
Exercise: state measured OD450 at 6.94 nM for each of the binders provided.
Give bare numbers, in OD450.

These solved cases illustrate the format of a correct answer.
BINDER	UNIT TAG	OD450 at 6.94 nM
GC33 IgG (antibody, V domains shown, Control antibody expressed as complete IgG; also called codrituzumab) VH: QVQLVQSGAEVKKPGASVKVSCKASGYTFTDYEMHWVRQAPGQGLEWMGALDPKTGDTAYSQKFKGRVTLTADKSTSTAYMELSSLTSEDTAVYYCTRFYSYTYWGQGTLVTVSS VL: DVVMTQSPLSLPVTPGEPASISCRSSQSLVHSNRNTYLHWYLQKPGQSPQLLIYKVSNRFSGVPDRFSGSGSGTDFTLKISRVEAEDVGVYYCSQNTHVPPTFGQGTKLEIKR	OD450	1.36
hAb007LH1L1d (antibody, human IgG1, V domains shown, Humanized F3.81.19; VH H1 + VL L1d; expressed as human IgG1) VH: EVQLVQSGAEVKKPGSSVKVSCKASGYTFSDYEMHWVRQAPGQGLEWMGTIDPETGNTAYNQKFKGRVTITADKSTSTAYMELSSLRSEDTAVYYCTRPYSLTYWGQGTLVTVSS VL: DIVMTQTPLSLPVTPGEPASISCRSSQSFVHSNSDTYLQWYLQKPGQSPQLLIYKVSNRFSGVPDRFSGSGSGTDFTLKISRVEAEDVGVYYCFQGSHVPYTFGQGTKLEIK	OD450	1.34
hAb006LH3L1c (antibody, human IgG1, V domains shown, Humanized F3.38.7; VH H3 + VL L1c; expressed as human IgG1) VH: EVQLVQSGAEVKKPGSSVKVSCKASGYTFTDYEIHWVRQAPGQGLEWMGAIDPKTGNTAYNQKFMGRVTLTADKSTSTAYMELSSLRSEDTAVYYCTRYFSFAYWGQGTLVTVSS VL: DIVMTQTPLSLPVTPGEPASISCRSSQTFVHSNRNTYLQWYLQKPGQSPQLLIYKVSNRFSGVPDRFSGSGSGTDFTLKISRVEAEDVGVYYCFQGSHVPYTFGQGTKLEIK	OD450	1.44

Now examine the next entry.
q: Report OD450 at 6.94 nM for hAb006LH3L1e (antibody, human IgG1, V domains shown, Humanized F3.38.7; VH H3 + VL L1e; expressed as human IgG1) VH: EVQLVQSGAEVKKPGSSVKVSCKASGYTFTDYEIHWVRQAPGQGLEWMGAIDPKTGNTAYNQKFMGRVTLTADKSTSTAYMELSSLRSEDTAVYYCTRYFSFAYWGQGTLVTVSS VL: DIVMTQTPLSLPVTPGEPASISCRSSQTFVHSNVNTYLQWYLQKPGQSPQLLIYKVSNRFSGVPDRFSGSGSGTDFTLKISRVEAEDVGVYYCFQGSHVPYTFGQGTKLEIK please.
a: 1.44
